B1: Poly(rC)-binding protein 1, residues 278 to 350; numbered along this chain, Q15365 (parent)
chain: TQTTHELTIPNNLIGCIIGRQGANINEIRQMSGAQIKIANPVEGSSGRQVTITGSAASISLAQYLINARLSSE

# Variants of: B1
# test.protocol: abundance fitness (aPCA) (normalised: wild type 0, dead -1); higher = more abundant; growth selection in yeast, the domain comes from the species named
# reported.conditions: Homo sapiens
I'd be grateful if you could share measured abundance fitness for these entries.
Numbers only.

N24C :: -0.196
R29F :: -0.271
Q30A :: 0.001

Alright, here's another variant for you.
Ask | Would you kindly share the measured abundance fitness for V42S ?
Reply | -0.028

// provenance: the Human Domainome abundance scans (Beltran et al. 2025)
